The sequences listed here are annotated with their C4: Percentage of the intersection in set B.
Test system: Balb/c mice
Test: Polypeptide chip-based vaccine immunogenicity scoring system
Assay type: in vivo
Measurement Setup: Embodiment III; polypeptide-KLH; value of the whole mix
Respond using a number only.

Answered examples (5):
>>> numeric_value("VNKGEDIQLLKS [SEQ ID NO:27]")
0.232
>>> numeric_value("SVYAWNRKR (SARS-CoV-2) [SEQ ID NO:3]")
1.759
>>> numeric_value("LQDLKWARFPKS [SEQ ID NO:29]")
0.440
>>> numeric_value("ERSEKSYEL (SARS-CoV-2) [SEQ ID NO:28]")
0.257
>>> numeric_value("HGKEDLKF (SARS-CoV-2) [SEQ ID NO:23]")
1.053

Exercise: Record lookup: for Balb/c mice, what C4: Percentage of the intersection in set B belongs to PLQPELDSFKEE [SEQ ID NO:37] ?
Solution: 0.398

Exercise: Record lookup: for Balb/c mice, what C4: Percentage of the intersection in set B belongs to RLFRKSNLK (SARS-CoV-2) [SEQ ID NO:35] ?
Solution: 0.185

Exercise: Record lookup: for Balb/c mice, what C4: Percentage of the intersection in set B belongs to QELGKYEQY (SARS-CoV-2) [SEQ ID NO:38] ?
Solution: 0.185

Exercise: Record lookup: for Balb/c mice, what C4: Percentage of the intersection in set B belongs to DSFKEELDKY (SARS-CoV-2) [SEQ ID NO:33] ?
Solution: 1.493

These entries and their values trace back to patent US20230136600A1.
